Measured MIC90 values are reported for all entries that follow.
Test system: Mycobacterium tuberculosis variant bovis
Assay: Antimicrobial activity against Mycobacterium bovis BCG ATCC 35734 cultured in GAST-Fe media incubated for 5 days by resazurin microtiter assay
Assay type: functional
Details: BCG ATCC 35734, 120 h, time 5 day
Number in µg/mL, nothing else.

Take a look at these entries with their results.
# MOLECULE, MIC90 [µg/mL]
rows = [
    ("NC(=S)N1N=C(c2ccccc2O)CC1c1ccccc1 (centres undefined)", 32),
    ("NC(=S)N1N=C(c2ccccc2O)CC1c1ccc(O)cc1 (centres undefined)", 32),
    ("Oc1ccccc1C1=NNC(c2ccc(Cl)cc2)C1 (centres undefined)", 32),
]

input: Query (molecule): Oc1ccccc1C1=NNC(c2ccc(Br)cc2)C1 (centres undefined) ; field requested: MIC90
output: 64
